assay: chemical genetic growth profiling, strain panel (AID 1159580);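 also: tested at 20 µM; growth read once vehicle control cultures reached saturation at 30 °C; lower values mean less growth of the strain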; conditions: S. cerevisiae deletion strains, growth OD, locus YHR200W, strain rpn10
The whole screen tested about 5,500 compounds, of which about 2,000 (36%) were called active. Inconclusive results (about 18%) are left out. Rule as the data show it: active = normalized growth mostly below about 0.91 (no sharp cut-off); inconclusive = no clear call, values can overlap the other calls; inactive = mostly above about 0.92. This is one part of the list.
Parameter call: string, one of Yes = active, No = inactive

{"molecule": "COc1ccc(/C=C/C(=O)O)cc1OC", "assigned category": "No"}
{"molecule": "c1cc2c(cc1[C@H]1OC[C@H]3[C@@H]1CO[C@H]3c1ccc3c(c1)OCO3)OCO2", "assigned category": "Yes"}
{"molecule": "CCCN(CCC)C(=O)C(CCC(=O)O)NC(=O)c1ccccc1 (stereo not given)", "assigned category": "No"}
{"molecule": "COc1c(C2COc3cc4c(cc3C2=O)CC(O)C(C)(C)O4)ccc2c1CCC(C)(C)O2 (stereo not given)", "assigned category": "No"}
{"molecule": "CC1(C)CC2C1CCC1(C)OC1CCC2(C)O (stereo not given)", "assigned category": "No"}

stdin: Test call, this molecule: CC1=CC(=O)CC(C)(C)C1(O)/C=C/C(C)=C\C(=O)O (stereo not given)
stdout: No

stdin: Outcome logged for Cc1ccc(C(C)C)cc2c(C)ccc1-2 in this assay:
stdout: No

stdin: How was C[C@@H]1CC2C3CCC4=CC(=O)C=C[C@]4(C)[C@@]3(F)[C@@H](O)C[C@]2(C)[C@@]1(O)C(=O)COP(=O)(O)O (stereo not given in full) classified in this test?
stdout: No

stdin: Recorded call for CCOC(=O)c1ccc(N)cc1 ?
stdout: No

stdin: What was the test verdict on CC(=O)N[C@@H]1[C@@H](C(O)[C@H](O)CO)O[C@](O)(C(=O)O)C[C@@H]1O (stereo not given in full) ?
stdout: No
